Procedure details: Inhibition of hedgehog signaling pathway in mouse Shh Light2 cells by Gli-dependent reporter gene assay
Assay type: functional, cell-based
Cond: Shh Light II
Observed property: IC50 (nM)

Solved cases (3 shown):
>  <Compound>
O=C(NC1CCC(F)(F)CC1)N1CCN(c2nc(-c3ccc4ccccc4n3)no2)CC1

>  <Observed property>
IC50

>  <Endpoint value>
5

$$$$
>  <Compound>
O=C(NCC1(N2CCC(F)CC2)CCCC1)N1CCC(c2nc(-c3ccc4ccccc4n3)no2)CC1

>  <Observed property>
IC50

>  <Endpoint value>
90

$$$$
>  <Compound>
O=C(NCC1(N2CCOCC2)CCCC1)N1CCC(c2nc(-c3ccc4ccccc4n3)no2)CC1

>  <Observed property>
IC50

>  <Endpoint value>
46

$$$$

I = CN(C)C1(CNC(=O)N2CCC(c3nc(-c4ccc5ccccc5n4)no3)CC2)CCCC1
II = CN1CCN(C2(CNC(=O)N3CCC(c4nc(-c5ccc6ccccc6n5)no4)CC3)CCCC2)CC1
III = CCN1CCCCC1CNC(=O)N1CCC(c2nc(-c3ccc4ccccc4n3)no2)CC1 (centres undefined)
Incoming: Sort these compounds on IC50 so the largest reading comes first. Ranked list of labels, please, in the requested order.
Outgoing: II, I, III
(II: 450 nM, I: 310 nM, III: 130 nM)

###

Procedure details: Intrinsic clearance in human liver microsomes assessed per mg of protein
Assay type: ADME, Microsome
Observed property: microsomal CLint (µL/min/mg)

P = CCN(CC)C1(CNC(=O)N2CCC(c3nc(-c4ccc5ccccc5n4)no3)CC2)CCCC1
Q = CN(C)C1(CNC(=O)N2CCC(c3nc(-c4ccc5ccccc5n4)no3)CC2)CCCC1
R = CCNC1(CNC(=O)N2CCC(c3nc(-c4ccc5ccccc5n4)no3)CC2)CCCC1
Incoming: Put the compounds in ascending order of microsomal CLint. Ranked list of labels, please, in the requested order.
Outgoing: R, Q, P

###

Procedure details: Inhibition of hedgehog signaling pathway in mouse Shh Light2 cells by Gli-dependent reporter gene assay
Format: functional, cell-based
Cond: Shh Light II
Observed property: IC50 (nM)

Solved cases (5 shown):
>  <Molecule>
O=C(NCC1(N2CCCC2)CCCC1)N1CCC(c2nc(-c3ccc4ccccc4n3)no2)CC1

>  <Readout units>
nM

>  <IC50>
69

$$$$
>  <Molecule>
NC1(CNC(=O)N2CCC(c3nc(-c4ccc5ccccc5n4)no3)CC2)CCCC1

>  <Readout units>
nM

>  <IC50>
350

$$$$
>  <Molecule>
CCN1CCOCC1CNC(=O)N1CCC(c2nc(-c3ccc4ccccc4n3)no2)CC1 (stereo not drawn)

>  <Readout units>
nM

>  <IC50>
230

$$$$
>  <Molecule>
CCN(CC)C1(CNC(=O)N2CCC(c3nc(-c4ccc5ccccc5n4)no3)CC2)CCCC1

>  <Readout units>
nM

>  <IC50>
120

$$$$
>  <Molecule>
O=C(NCC(c1ccccc1)N1CCCCC1)N1CCC(c2nc(-c3ccc4ccccc4n3)no2)CC1 (stereo not drawn)

>  <Readout units>
nM

>  <IC50>
130

$$$$

1 = O=C(NCC1(CO)CCCC1)N1CCC(c2nc(-c3ccc4ccccc4n3)no2)CC1
2 = O=C(NCC(c1cccnc1)N1CCOCC1)N1CCC(c2nc(-c3ccc4ccccc4n3)no2)CC1 (stereo not drawn)
Incoming: Task for the reader: decide whether 1 or 2 has the larger IC50. Let me know the label of the one you choose.
Outgoing: 2

###

System tested: UniProt:Q99835
Procedure details: Displacement of BODIPY-cyclopamine from Smo expressed in COS-1 cells after 4 to 6 hrs by Flow Cytometry analysis in presence of 2% fetal calf serum
Format: cell-based
Observed property: IC50 (nM)

Solved cases (5 shown):
>  <Molecule>
CN(C)C1(CNC(=O)N2CCC(c3nc(-c4ccc5ccccc5n4)no3)CC2)CCCC1

>  <System tested>
UniProt:Q99835

>  <Readout units>
nM

>  <IC50>
300

$$$$
>  <Molecule>
O=C(NCC1NCCc2ccccc21)N1CCC(c2nc(-c3ccc4ccccc4n3)no2)CC1 (centres undefined)

>  <System tested>
UniProt:Q99835

>  <Readout units>
nM

>  <IC50>
380

$$$$
>  <Molecule>
CCNC1(CNC(=O)N2CCC(c3nc(-c4ccc5ccccc5n4)no3)CC2)CCCC1

>  <System tested>
UniProt:Q99835

>  <Readout units>
nM

>  <IC50>
46

$$$$
>  <Molecule>
CCN(CC)C1(CNC(=O)N2CCC(c3nc(-c4ccc5ccccc5n4)no3)CC2)CCCC1

>  <System tested>
UniProt:Q99835

>  <Readout units>
nM

>  <IC50>
55

$$$$
>  <Molecule>
Cn1c(-c2noc(C3CCN(C(=O)NCC4(N5CCOCC5)CCCC4)CC3)n2)nc2ccccc21

>  <System tested>
UniProt:Q99835

>  <Readout units>
nM

>  <IC50>
17

$$$$

P = O=C(NCC1(N2CCCC2)CCCC1)N1CCC(c2nc(-c3ccc4ccccc4n3)no2)CC1
Q = Cn1c(-c2noc(C3CCN(C(=O)NCC4(N5CCCCC5)CCCC4)CC3)n2)nc2ccccc21
Incoming: Task for the reader: decide whether P or Q has the larger IC50. Let me know the label of the one you choose.
Outgoing: P

###

System tested: Protein smoothened (Homo sapiens, UniProt Q99835)
Sequence (Q99835 whole entry): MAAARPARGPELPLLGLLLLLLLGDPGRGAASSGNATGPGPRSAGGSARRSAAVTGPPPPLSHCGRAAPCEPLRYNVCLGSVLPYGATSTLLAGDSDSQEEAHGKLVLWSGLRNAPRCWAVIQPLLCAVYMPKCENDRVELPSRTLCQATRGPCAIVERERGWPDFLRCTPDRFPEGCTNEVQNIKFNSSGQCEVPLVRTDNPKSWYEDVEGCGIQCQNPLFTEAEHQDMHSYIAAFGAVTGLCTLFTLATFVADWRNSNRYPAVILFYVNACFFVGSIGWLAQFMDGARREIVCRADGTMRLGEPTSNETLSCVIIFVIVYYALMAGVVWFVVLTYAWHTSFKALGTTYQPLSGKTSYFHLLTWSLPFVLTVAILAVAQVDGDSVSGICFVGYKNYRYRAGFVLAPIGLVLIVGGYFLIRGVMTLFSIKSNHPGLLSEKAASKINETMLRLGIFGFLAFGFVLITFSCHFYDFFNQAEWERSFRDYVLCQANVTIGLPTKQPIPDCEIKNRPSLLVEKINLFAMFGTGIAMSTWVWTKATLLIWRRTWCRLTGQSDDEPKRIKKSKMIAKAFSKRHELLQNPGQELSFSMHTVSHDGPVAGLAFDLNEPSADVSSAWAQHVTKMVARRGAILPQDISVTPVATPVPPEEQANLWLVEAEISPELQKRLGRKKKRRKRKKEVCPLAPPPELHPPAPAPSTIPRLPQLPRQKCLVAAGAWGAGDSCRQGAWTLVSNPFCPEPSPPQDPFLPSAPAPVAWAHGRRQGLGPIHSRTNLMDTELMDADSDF
Procedure details: Displacement of BODIPY-cyclopamine from Smo expressed in COS-1 cells after 4 to 6 hrs by Flow Cytometry analysis in presence of 20% normal human serum
Type: cell-based
pIC50: −log10 of the molar value.
Observed property: pIC50

Solved cases (6 shown):
>  <Compound>
O=C(NCC1(CO)CCCC1)N1CCC(c2nc(-c3ccc4ccccc4n3)no2)CC1

>  <Endpoint value>
5.16

$$$$
>  <Compound>
O=C(NCC1(NC2CCCCC2)CCCC1)N1CCC(c2nc(-c3ccc4ccccc4n3)no2)CC1

>  <Endpoint value>
6.28

$$$$
>  <Compound>
O=C(NCC1(N2CCCC2)CCCC1)N1CCC(c2nc(-c3ccc4ccccc4n3)no2)CC1

>  <Endpoint value>
7.38

$$$$
>  <Compound>
CN1CCN(C2(CNC(=O)N3CCC(c4nc(-c5ccc6ccccc6n5)no4)CC3)CCCC2)CC1

>  <Endpoint value>
6.40

$$$$
>  <Compound>
CN(C)C1(CNC(=O)N2CCC(c3nc(-c4ccc5ccccc5n4)no3)CC2)CCCC1

>  <Endpoint value>
6.43

$$$$
>  <Compound>
CCN1CCOCC1CNC(=O)N1CCC(c2nc(-c3ccc4ccccc4n3)no2)CC1 (stereo not given)

>  <Endpoint value>
6.41

$$$$

P = CC(C)(C)OC(=O)NC1(CNC(=O)N2CCC(c3nc(-c4ccc5ccccc5n4)no3)CC2)CCCC1
Q = CCN1CCCC1CNC(=O)N1CCC(c2nc(-c3ccc4ccccc4n3)no2)CC1 (stereo not given)
R = O=C(NCC1(N2CCCCC2)CCCC1)N1CCN(c2nc(-c3ccc4ccccc4n3)no2)CC1
S = CCN1CCCCC1CNC(=O)N1CCC(c2nc(-c3ccc4ccccc4n3)no2)CC1 (stereo not given)
Incoming: Sort these compounds on pIC50 so the largest reading comes first. Ranked list of labels, please, in the requested order.
Outgoing: R, S, Q, P

###

Procedure details: Inhibition of hedgehog signaling pathway in mouse Shh Light2 cells by Gli-dependent reporter gene assay
Assay type: functional, cell-based
Cond: Shh Light II
pIC50: −log10 of the molar value.
Observed property: pIC50

Solved cases (5 shown):
>  <Molecule>
O=C(NCC(c1ccccn1)N1CCOCC1)N1CCC(c2nc(-c3ccc4ccccc4n3)no2)CC1 (stereo not drawn)

>  <pIC50>
6.10

$$$$
>  <Molecule>
CC(C)N1CCCC1CNC(=O)N1CCC(c2nc(-c3ccc4ccccc4n3)no2)CC1 (stereo not drawn)

>  <pIC50>
6.07

$$$$
>  <Molecule>
CC(C)NC1(CNC(=O)N2CCC(c3nc(-c4ccc5ccccc5n4)no3)CC2)CCCC1

>  <pIC50>
7.60

$$$$
>  <Molecule>
O=C(NCC1(N2CCOCC2)CCCCCC1)N1CCC(c2nc(-c3ccc4ccccc4n3)no2)CC1

>  <pIC50>
6.48

$$$$
>  <Molecule>
CC(C)(C)OC(=O)NC1(CNC(=O)N2CCC(c3nc(-c4ccc5ccccc5n4)no3)CC2)CCCC1

>  <pIC50>
5.70

$$$$

I = O=C(NCC1(N2CCCCC2)CCCC1)N1CCN(c2nc(-c3ccc4ccccc4n3)no2)CC1
II = O=C(NCC1(c2ccccc2)CCCC1)N1CCC(c2nc(-c3ccc4ccccc4n3)no2)CC1
III = CCNC1(CNC(=O)N2CCC(c3nc(-c4ccc5ccccc5n4)no3)CC2)CCCC1
IV = Cn1c(-c2noc(C3CCN(C(=O)NCC4(N5CCCCC5)CCCC4)CC3)n2)nc2ccccc21
Incoming: Sort these molecules on pIC50 so the largest reading comes first. Ranked list of labels, please, in the requested order.
Outgoing: IV, I, III, II

P = O=C(NCC1(N2CCCCC2)CCCC1)N1CCC(c2nc(-c3ccc4ccccc4n3)no2)CC1
Q = Cn1c(-c2noc(N3CCN(C(=O)NCC4(N5CCCCC5)CCCC4)CC3)n2)nc2ccccc21
R = O=C(NCC1NCCc2ccccc21)N1CCC(c2nc(-c3ccc4ccccc4n3)no2)CC1 (stereo not drawn)
Incoming: List by increasing pIC50. Ranked list of labels, please, in the requested order.
Outgoing: R, P, Q
(R: 6.02, P: 7.00, Q: 8.40)
